- Assayed Target: CD3
- Sequence (P07766 23-126): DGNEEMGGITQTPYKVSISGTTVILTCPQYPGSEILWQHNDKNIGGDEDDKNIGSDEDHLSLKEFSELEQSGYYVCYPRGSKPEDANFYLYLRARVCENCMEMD
- Method Summary: Octet, crude lysate
Listed binders paired with reported Kd
Quantity: Kd

{"Binder": "AC3409 (bispecific antibody, V domains shown) VH: EVQLLESGGGIVQPGGSLKLSCAASGFTFNTYAMNWVRQAPGKGLEWVARIRSKYNNGATYYADSVKDRFTISRDDSKNTVYLQMNNLKTEDTAVYYCVRHENFGNSYVSWFAHWGQGTLVTVSS VL: ELVVTQEPSLTVSPGGTVTLTCRSSNGAVTSSNYANWVQQKPGQAPRGLIGGTNKRAPGTPARFSGSLLGGKAALTLSGVQPEDEAVYYCALWYPNLWVFGGGTKLTVL", "Endpoint Result": "11.3 nM"}
{"Binder": "AC3433 (bispecific antibody, V domains shown) VH: EVQLLESGGGIVQPGGSLKLSCAASGFTFNTYAMNWVRQAPGKGLEWVARIRSKYNNYATYYADSVKDRFTISRDDSKNTVYLQMNNLKTEDTAVYYCVRHENFGNSYVSWFAHWGQGTLVTVSS VL: ELVVTQEPSLTVSPGGTVTLTCRSSNGAVTSSNYANWVQQKPGQAPRGLIGGTNKRAPGTPARFSGSLQGGKAALTLSGVQPEDEAVYYCALWYPNLWVFGGGTKLTVL", "Endpoint Result": "4.6 nM"}
{"Binder": "AC3419 (bispecific antibody, V domains shown) VH: EVQLLESGGGIVQPGGSLKLSCAASGFTFNTYAMNWVRQAPGKGLEWVARIRSKYNNYATYQADSVKDRFTISRDDSKNTVYLQMNNLKTEDTAVYYCVRHENFGNSYVSWFAHWGQGTLVTVSS VL: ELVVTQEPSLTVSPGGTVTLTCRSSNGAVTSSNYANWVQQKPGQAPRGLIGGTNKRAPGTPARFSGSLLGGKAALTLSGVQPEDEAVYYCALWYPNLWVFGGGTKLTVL", "Endpoint Result": "7.2 nM"}
